Experiment: HepG2 cytotoxicity, primary screen, cytotoxicity control for P. falciparum antimalarial project, cell-based, ATP luminescence (AID 2303);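 further: 0% = DMSO wells and 100% = digitonin-killed cells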
Conditions: HepG2 viability, 24-48 h, at 10 µM, hits give high values
OBSERVED PROPERTY: inhibition (%)
Give just the number in %; leave the unit off.

>>> df
                                   compound  measured_value
0  CCN(CC)CCCOC(=O)c1ccc2c(c1)-c1ccc(C(=O)OCCCN(CC)CC)c3cccc-2c13              22
1  NC(=O)CCC(NC(=O)CNC(=O)Nc1cccc(C(F)(F)F)c1)C(=O)O (stereo not drawn)               1
2          CCN(CC)CCNc1ccnc2c3ccccc3n(C)c12              14
3  COc1ccc2nccc(N3CCC(CCNCc4ccc5c(n4)NC(=O)CS5)CC3)c2c1              55
4  O=c1cc(NCCCNCc2ccc(C(F)(F)F)s2)[nH]c2ccccc12             -11

**Query** Fill in: inhibition of NC1CCN(CCc2ccc(NS(=O)(=O)c3ccc(-c4ccccc4)cc3)cc2)CC1 is ___
**Result** 17

**Query** Could you tell me which inhibition is on file for CCN(CC)S(=O)(=O)n1ncc2c3c(N)nc(N)nc3ccc21 ?
**Result** 67

**Query** Quick check: inhibition of CC(CN1CCN(C)CC1)C(=O)Nc1ccc(-c2cccc(-c3nc4ccccc4[nH]3)c2)cc1 (stereo not drawn) ?
**Result** 4

**Query** Return reported inhibition; argument: CCCc1cc(=O)oc2cc(OC)c(C(=O)CC(C)C)c(OC)c12
**Result** 3

====

Target: L-lactate dehydrogenase (Plasmodium falciparum (isolate CDC / Honduras)) (UniProt Q27743)
Sequence (Q27743 whole entry, looked up): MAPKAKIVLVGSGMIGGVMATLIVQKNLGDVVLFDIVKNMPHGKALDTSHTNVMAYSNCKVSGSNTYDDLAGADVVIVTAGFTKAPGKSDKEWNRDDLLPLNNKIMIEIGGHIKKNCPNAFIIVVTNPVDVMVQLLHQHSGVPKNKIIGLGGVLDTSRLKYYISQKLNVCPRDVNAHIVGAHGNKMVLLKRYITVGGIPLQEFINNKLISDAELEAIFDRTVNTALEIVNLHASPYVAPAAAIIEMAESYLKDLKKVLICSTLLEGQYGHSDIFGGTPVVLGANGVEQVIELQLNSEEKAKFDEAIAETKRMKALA
Assay: PfLDH activity inhibition – cell lysate, 3D7 strain, counter-screen for P. falciparum growth inhibition project (AID 2304);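 further: 0% = vehicle and 100% = reference inhibitor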
Conditions: P. falciparum 3D7 crude extract, LDH APAD/NBT absorbance; at 2 µM; hits give high values
inhibition values by entry
Could you give me the number in %? Just the number is fine.

>>> print(df.to_string())
                                   compound                         system_under_test  measured_value
0  COc1cc2sc(=NC(=O)c3cccc([N+](=O)[O-])c3)n(C)c2cc1OC  L-lactate dehydrogenase (Plasmodium falciparum (isolate CDC / Honduras)) (UniProt Q27743)              -3

**Query** What value of inhibition has been recorded for this entry: CCC(COCc1ccc(Cl)cc1)N(C)CCN(C)C(CC)COCc1ccc(Cl)cc1 (stereo not given)
**Result** -5

**Query** // returns reported inhibition for input CC(O)C1CCCCN1C(=O)c1cccc(-c2cccc(-c3nc4ccccc4[nH]3)c2)c1 (stereo not given)
**Result** -4

**Query** Reported inhibition for Cc1ccc(-c2cccc3c(NC(=O)Nc4ccc5nccc(N6CCN(C)CC6)c5c4)cccc23)cn1 : what is it?
**Result** -7

**Query** Requested read-out: inhibition. Entry: O=C(CNCC1CCCCC1)Nc1cc(C(F)(F)F)ccc1Cl
**Result** 2

**Query** Would you kindly share the measured inhibition for COc1cc(NCC2(CNCc3cn(Cc4ccccc4)c4ccccc34)CCCCC2)nc2ccccc12 ?
**Result** 5
